Test: NCI Yeast Anticancer Drug Screen. Data for the mlh1 rad18 strain (AID 175)
Conditions: S. cerevisiae mlh1 rad18 strain growth inhibition; at 5.0 µM (retest, dose inferred, filed as 0.5); stronger effect = higher value
Compounds without any hit were thinned out: in the full panel of roughly 79,000, 15% have a hit. The source made the active and inactive calls. Rule as the data show it: active = growth inhibition above about 70%; inactive = the rest.
PROPERTY: growth inhibition

1. Nc1cc(Cl)c2c(c1)Cc1ccccc1-2 | 0% (inactive)
2. O=C(COc1ccccc1)Oc1c(Cl)c(Cl)c(Cl)c(Cl)c1Cl | 23% (inactive)
3. CCCCCc1[nH]nc(C(=O)OC)c1N=NN1CCOCC1 | 89% (active)
4. CCCCCCCCC1N(C)CCCN1C | -102% (inactive)
5. CCCOC(=O)C(Br)C(Br)C(=O)OCCC (stereo not drawn) | 44% (inactive)
6. N#CCCN(CCC#N)Cc1c(O)c(O)c(CN(CCC#N)CCC#N)c2ccccc12 | -4% (inactive)
7. CCNC1(C2c3ccccc3-c3ccccc32)c2ccccc2-c2ccccc21 | 30% (inactive)
8. COC(CC[P+](c1ccccc1)(c1ccccc1)c1ccccc1)(C(=O)c1ccccc1)c1ccccc1 (stereo not drawn) | 92% (active)
9. CC(C)N(CCO)CC(O)Cn1cnc2c(N)ncnc21 (stereo not drawn) (tested in a mixture with another compound) | -8% (inactive)
10. Cc1ccc(S(=O)(=O)Nc2ccc(C)cc2C)cc1 | -2% (inactive)
11. CCCCCCCCNc1ccc(Cl)cc1 | 40% (inactive)
12. O=C(Sc1ccccc1)C1OC12CCCCC2 (stereo not drawn) | -122% (inactive)
13. Cc1ccccc1NC(=O)c1cc2cc(N=Nc3ccccc3C(=O)O)ccc2oc1=O | 8% (inactive)
14. C=CCOC(=O)C(O)C(CC)CCCCC (stereo not drawn) | 17% (inactive)
15. O=c1oc2ccccc2c(O)c1/C=N/C(=S)NCc1ccccc1 | -36% (inactive)
16. CCCCN(CCCC)CC(O)c1cccc2c(Cl)cccc12 (stereo not drawn) | 24% (inactive)
17. CCCCCCCCCCCCCCC(=O)OCC[N+](C)(C)C | 27% (inactive)
18. O=C(O)c1ccc([N+](=O)[O-])cc1.[Ag] | 99% (active)
19. C1=NC2c3ccccc3Cc3cccc1c32 (stereo not drawn) | -13% (inactive)
20. O=C1c2ccccc2C(O)(c2ccccc2)c2c(Cl)cccc21 (stereo not drawn) | -12% (inactive)
21. CN1C/C(=C\c2ccccc2)C(=O)/C(=C/c2ccccc2)C1 | 11% (inactive)
22. CCN(CC)CCNc1ccc2nnn3c4ccccc4c(=O)c1c23 | -1% (inactive)
23. COc1c2c(cc3c1c(=O)c1ccccc1n3C)OCO2 | -29% (inactive)
24. CCOC(=O)C(=O)CC1=Nc2ccccc2SC(c2cccc(C)c2)C1 (stereo not drawn) | 2% (inactive)
25. CCOC(=O)C(=Cc1ccccc1)C(=O)OCC | 12% (inactive)
26. NN(Cc1ccccc1)c1ccccc1 | 27% (inactive)
27. O=Cc1c(Cn2ccnc2)c2cc([N+](=O)[O-])ccc2n1Cc1ccccc1 | 8% (inactive)
28. CN(C)Cc1ccc2[nH]c3c(c2c1)CCCC3 | 28% (inactive)
29. ON1CCc2c([nH]c3ccccc23)C1c1ccc(Cl)cc1 (stereo not drawn) | -2% (inactive)
30. CN(C)CCN(C)N=Nc1c(-c2cccs2)n[nH]c1C(F)(F)F | 99% (active)
31. c1ccc2c(c1)cc(C1NCCc3[nH]cnc31)c1ccccc12 (stereo not drawn) | -21% (inactive)
32. O=C(O)C1CCCCC1.[Ag] | 34% (inactive)
33. O=C(O)CSC(=S)N1CCCC1 | -4% (inactive)
34. CCNC(=S)N/N=C(\C)c1cccc(C)n1 | -9% (inactive)
35. Nc1ccccc1-c1nc2c(ccc3ccccc32)[nH]1 | 0% (inactive)
36. O=C(O)/C=C/C(=O)c1ccccc1 | 6% (inactive)
37. CCCCCCCCCCCCn1cnc2ncnc(Cl)c21 | 6% (inactive)
38. COc1cc(C(c2cc3c(cc2O)OCO3)N2CCN(C(c3ccc(O)c(OC)c3)c3cc4c(cc3O)OCO4)CC2)ccc1O (stereo not drawn) | 2% (inactive)
39. CCc1cc2c(c3c1C(=O)CC3)C(C)(C)CCC2 | -6% (inactive)
40. O=[N+]([O-])c1ccc(-c2cccc(Cl)c2)c([N+](=O)[O-])c1 | 2% (inactive)
41. Nc1ccc(-c2nc3ccccc3s2)cc1 | 10% (inactive)
42. O=C(N/C(=C\c1ccc(/C=C(\NC(=O)c2ccccc2)c2nc3ccccc3s2)cc1)c1nc2ccccc2s1)c1ccccc1 | 28% (inactive)
43. NNC(=S)N/N=C(\CC1OC(=O)c2ccccc21)c1ccccc1O (stereo not drawn) | -43% (inactive)
44. CC(C)(C)c1cc(Nc2ccc([N+](=O)[O-])cc2[N+](=O)[O-])cc(C(C)(C)C)c1O | -1% (inactive)
45. O=[N+]([O-])c1ccc(NC(=S)N/N=C(\c2ccccc2)c2ccccn2)cc1 | 11% (inactive)
46. Cc1ccc(O)c(C(c2cc(C)ccc2O)c2cc([N+](=O)[O-])ccc2O)c1 | 24% (inactive)
47. O=C1CCC(Cc2ccc(I)cc2)C(=O)N1 (stereo not drawn) | -6% (inactive)
48. Oc1cccc2ccc(SSc3ccc4cccc(O)c4n3)nc12 | 93% (active)
